- target of assay: Mannose-6-phosphate isomerase (Homo sapiens)
- assay procedure: inhibitors of human PMI, primary screen, biochemical, fluorescence intensity, coupled assay (AID 1209);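 also: plate controls were DMSO vehicle for no effect and wells lacking substrate for full effect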
- protocol conditions: purified PMI enzyme, at 20 µM, active compounds read high
The whole screen tested about 190,000 compounds, of which about 810 (0.43%) were called active. For the sample, actives were picked, then their nearest neighbours and some compounds at random.
This section presents compounds with their documented inhibition values.
Field: numeric (%). Do not append units.

Here's what some known entries look like.
Cc1ccc(-n2c(N)c(C(=O)N3CCN(C)CC3)sc2=S)cc1 | 2.7
CCc1ccc(S(=O)(=O)/N=C2/C=C(Sc3ncn[nH]3)C(=O)c3ccccc32)cc1 | 98.8
CCC(C)(C(=O)NC1CCCCC1)N(Cc1ccco1)C(=O)CC1NC(=O)NC1=O (stereo not given) | 8.4

Exercise: What does the data say about its inhibition? Entry: O=C(CCCCCC(=O)N(CCO)CCO)N(CCO)CCO
Key: -2.9

Exercise: What does the data say about its inhibition? Entry: COc1ccc(N2CCC(CNC(=O)Nc3ccc(Cl)cc3)C2)cc1 (stereo not given)
Key: 37

Exercise: What does the data say about its inhibition? Entry: NC(=O)c1cc2cc(Cc3ccccc3Cl)ccc2oc1=O
Key: -1.2

Exercise: What does the data say about its inhibition? Entry: O=S(=O)(Nc1cccnc1)c1ccc(Cl)c(C(F)(F)F)c1
Key: 6

Exercise: What does the data say about its inhibition? Entry: O=S(=O)(Nc1cc(Sc2ncn[nH]2)c(O)c2ccccc12)c1ccccc1
Key: 99.3

Exercise: What does the data say about its inhibition? Entry: Cc1c(C(=O)N2CCCCC2)sc(N)c1C#N
Key: 8.9

Exercise: What does the data say about its inhibition? Entry: Nc1cc2nc[nH]c2cc1N
Key: 68.3

Exercise: What does the data say about its inhibition? Entry: COc1ccc(N2CCC(CNS(=O)(=O)c3cccc(C(F)(F)F)c3)C2)cc1 (stereo not given)
Key: 65.5
